Assign Biological Activity, S. aureus ATCC6538p to each entry below.
- Tested on: S. aureus
- assay.remarks: Biological activity against bacterial strains: S. aureus
- Assay type: cell-based, Staphylococcus aureus
- Design: unit not given here
- experimental.context: strain ATCC6538p

Challenge: Specify measured Biological Activity, S. aureus ATCC6538p for CCC1OC(=O)CC(O)C(C)C(OC2OC(C)C(O)C(N(C)C)C2O)C(CC=O)CC(C)C(=NOCC#Cc2cnc3ccccc3c2)C=CC(C)=CC1CO (single isomer, unassigned) [Compound D] .
Response given: 0.098

Challenge: Specify measured Biological Activity, S. aureus ATCC6538p for CCC1OC(=O)CC(O)C(C)C(OC2OC(C)C(O)C(N(C)C)C2O)C(CCN2CC(C)CC(C)C2)CC(C)C(=NOCCCCOc2ccc3ncccc3c2)C=CC(C)=CC1CO (single isomer, unassigned) [Compound U] .
Response given: >12.5

Challenge: Specify measured Biological Activity, S. aureus ATCC6538p for CCC1OC(=O)CC(O)C(C)C(OC2OC(C)C(O)C(N(C)C)C2O)C(CCN2CC(C)CC(C)C2)CC(C)C(=NOCc2ccc(F)cc2)C=CC(C)=CC1CO (stereo not drawn) [Compound W] .
Response given: 0.78
